src = ChEMBL document CHEMBL3045597

# system.under.test: Lysosomal alpha-glucosidase (Rattus norvegicus)
# protocol.text: Inhibition of rat intestinal alpha-glucosidase using p-nitrophenyl- alpha-D-glucopyranoside as substrate at 200 uM preincubated for 5 min before addition of substrate measured after 10 min
The source made the active and inactive calls. No cut-off for these calls is given here.
property.name: inhibition

As a guide, the following entries are already answered.
>>> measured("O=[N+]([O-])c1ccc(/N=C/c2cc(Br)ccc2O)cc1")
"Active"
>>> measured("O=Cc1cc(Br)ccc1O")
"85.8%"
>>> measured("Oc1ccccc1/C=N/c1ccc(Cl)cc1")
"6.63%"
>>> measured("Oc1ccccc1/C=N/c1ccccc1")
"Active"
>>> measured("COc1ccc(/N=C/c2cc(Br)ccc2O)cc1")
"Active"

Give one value of inhibition per listed molecule.
1. Oc1ccccc1/C=N\c1ccccc1/N=C/c1ccccc1O
2. Oc1ccc(Br)cc1/C=N/CC/N=C/c1cc(Br)ccc1O

1. 57.9%
2. 14.4%

Give one value of inhibition per listed molecule.
1. Oc1ccc(Br)cc1/C=N/c1ccccc1
2. O=[N+]([O-])c1ccc(/N=C/c2ccccc2O)cc1
3. C/C(=N\NC(=O)c1ccccc1)c1ccc(C)cc1
4. Oc1ccccc1/C=N/CC/N=C/c1ccccc1O
5. C/C(=N\CC/N=C(\C)c1ccccc1)c1ccccc1
6. COc1ccc(/N=C/c2ccccc2O)cc1

1. Active
2. 95.6%
3. 31.6%
4. 29.1%
5. Active
6. 11.4%

###

# System: Radical scavenging activity
# protocol.text: Antioxidant activity assessed as DPPH free radical scavenging activity at 250 uM after 20 min
# Type: functional
Calls of active or inactive are those of the source. The calls are words filed in the database; no cut-off is given here.
property.name: Activity

As a guide, the following entries are already answered.
>>> measured("O=[N+]([O-])c1ccc(/N=C/c2cc(Br)ccc2O)cc1")
"inactive"
>>> measured("COc1ccc(/N=C/c2cc(Br)ccc2O)cc1")
"48.7%"
>>> measured("Oc1ccc(Br)cc1/C=N/CC/N=C/c1cc(Br)ccc1O")
"inactive"
>>> measured("Oc1ccc(Br)cc1/C=N/c1ccccc1")
"9.27%"

Give one value of Activity per listed compound.
1. Oc1ccccc1/C=N/CC/N=C/c1ccccc1O
2. O=[N+]([O-])c1ccc(/N=C/c2ccccc2O)cc1
3. Oc1ccc(Br)cc1/C=N/c1ccc(Cl)cc1
4. Oc1ccccc1/C=N\c1ccccc1/N=C/c1ccccc1O
5. Oc1ccccc1/C=N/c1ccccc1
6. Oc1ccccc1/C=N/c1ccc(Cl)cc1

1: inactive; 2: inactive; 3: 13.5%; 4: 75.3%; 5: 9.29%; 6: inactive
